# Test system: mitochondrial ATP production on non-small cell lung carcinoma cell lines NCI-H460
# protocol_details: Mitochondrial ATP analysis (Cell Titer Glo) in NCI-H460 cells
# Type: cell-based
# experimental_context: 1-hour incubation, with sodium iodoacetate (100 μM), concentration inhibiting 50% of mitochondrial ATP production, read-out: IC50 (mito ATP)
The label y is reserved for IC50 strictly under 200 nM; n covers values equal to or above it.

{"compound": "COc1ccc(C(O)C(C)(C)Oc2ccc(-c3noc(-c4ccc(OC(C)(C)C(O)c5ccc(OC)c(OC)c5)cc4)n3)cc2)cc1OC (centres unmarked) [Compound I-38]", "category_label": "y"}
{"compound": "COc1ccc(C(O)COc2ccc(-c3csc(-c4ccc(OCC(O)c5ccc(OC)c(OC)c5)cc4)n3)cc2)cc1OC (single isomer, unassigned) [Compound I-61]", "category_label": "n"}
{"compound": "COc1ccc(C(O)C(C)Oc2ccc(-c3csc(-c4ccc(OC(C)C(O)c5ccc(OC)c(OC)c5)cc4)n3)cc2)cc1OC (single isomer, unassigned) [Compound I-33]", "category_label": "y"}
{"compound": "COc1ccc(C(O)C(C)Oc2ccc(-c3csc(-c4ccc(OC(C)C(O)c5ccc(OC)c(OC)c5)cc4)n3)cc2)cc1OC (single isomer, unassigned) [Compound I-30]", "category_label": "y"}
{"compound": "COc1ccc(C(O)COc2ccc(-c3csc(-c4ccc(OCC(O)c5ccc(OC)c(OC)c5)cc4)n3)cc2)cc1OC (single isomer, unassigned) [Compound I-24]", "category_label": "n"}
{"compound": "COc1ccc(C(O)C(C)(C)Oc2ccc(-c3csc(-c4ccc(OC(C)(C)C(O)c5ccc(OC)c(OC)c5)cc4)n3)cc2)cc1OC (centres unmarked) [Compound I-27]", "category_label": "y"}
{"compound": "COc1ccc(C(O)COc2ccc(-c3nsc(-c4ccc(OCC(O)c5ccc(OC)c(OC)c5)cc4)n3)cc2)cc1OC (single isomer, unassigned) [Compound I-41]", "category_label": "n"}
{"compound": "COc1ccc(C(O)C(C)(C)Oc2ccc(-c3nc(-c4ccc(OC(C)(C)C(O)c5ccc(OC)c(OC)c5)cc4)c(C)s3)cc2)cc1OC (single isomer, unassigned) [Compound I-8]", "category_label": "y"}
{"compound": "COc1ccc(C(O)COc2ccc(-c3nc(C)c(-c4ccc(OCC(O)c5ccc(OC)c(OC)c5)cc4)o3)cc2)cc1OC (single isomer, unassigned) [Compound I-5]", "category_label": "n"}
{"compound": "COc1ccc(C(O)COc2ccc(-c3csc(-c4ccc(OC(C)(C)C(O)c5ccc(OC)c(OC)c5)cc4)n3)cc2)cc1OC (single isomer, unassigned) [Compound I-66]", "category_label": "y"}
{"compound": "COc1ccc(C(O)COc2ccc(-c3nc(-c4ccc(OCC(O)c5ccc(OC)c(OC)c5)cc4)c(C)s3)cc2)cc1OC (single isomer, unassigned) [Compound I-10]", "category_label": "y"}
